B1: LINE1-mini (parent)
chain: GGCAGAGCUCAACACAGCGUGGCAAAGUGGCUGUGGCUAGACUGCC

variants of: B1; assay: self-cleavage, relative activity (ratio to wild type); higher = more cleavage; in vitro, sequencing; the parent is a self-cleaving ribozyme
Below, each of the variants is paired with its reported self-cleavage value.
Form field (numeric): enter value without unit.

Worked set:
C10A A16U; 0.05
G21U C23U; 1.38
U9G U28G; 0.06
G33U C42G; 0.07
A4U G36U; 0.08
G19U C31U; 0.44
G17C C46A; 0.64
C8G U28C; 0.46
G19C G30A; 0.91
G5U G27A; 0.06

Return self-cleavage (reported value) for this variant: G29A G33U
0.12

Note down self-cleavage recorded for G1A G17A
0.15
